# reported melting point; entries follow

molecule | melting point
O=C(CC1CCCCCC1=O)c1ccc([N+](=O)[O-])cc1 (stereo not given) | 79 to 84 °C
CCOC(=O)C1=C(COCCN2CCN(c3nc(N)n(C)n3)CC2)NC(C)=C(C(=O)OC)C1c1ccccc1Cl (stereo not given) | 92 to 96 °C
CCCCCN(CCC12CC3CC(CC(C3)C1)C2)C(=O)NCCCc1ccnc2ccccc12 | 80.2 to 102 °C
CNn1c(N(C)C)nn(C(=O)NC2CCCC2)c1=O | 137 °C
Cc1ccc(-c2ccc3c(c2)C=C(C(=O)Nc2ccc(CCN4CCCCC4)cc2)CCO3)cc1 | 201 to 202 °C
CCn1c(C)c(C2(c3ccc(N(C)C)cc3N(C)C)OC(=O)c3ccccc32)c2ccccc21 (stereo not given) | 218 to 222 °C
Cc1cccc2c1c(C(=O)CC1CCCCCC1)cn2CCO | 98 to 104 °C
O=C(NCCc1cccs1)C12CC3CC(CC1C3)C2 | 113 to 114 °C
CCCCCCC1=CC(O)(C(Br)Br)NC1=O (stereo not given) | 106 to 109 °C
CCOc1ccc2[nH]c(=O)n(-c3ccc(OC)cc3)c2c1 | 98 °C

====

# reported melting point; entries follow

compound | melting point
COc1cc(OC)c2c(=O)cc(-c3ccccc3)oc2c1 | 147 to 149 °C
O=C(Nc1nnn[nH]1)c1cnc2sc3ccccc3n2c1=O | 330 to 332 °C
COC(=O)c1cccc(-c2ncc(OCCN3CCOCC3)cn2)c1 | 89 to 91 °C
CC1CCCN(S(=O)(=O)c2ccc(OC(C)C)c(C(=O)O)c2)C1 (stereo not drawn) | 102 to 104 °C
COC(=O)C1CCn2c1cc(Br)c2C(=O)c1ccccc1 (stereo not drawn) | 93 °C
CC(C)CC1NCC(C)(C)NC1=O (stereo not drawn) | 140 to 144 °C
C1=CCCCCN(CCc2nccc3c2[nH]c2ccccc23)CCCC1 | 77 to 82 °C
Oc1ccc(-c2cc3cc(F)ccc3o2)cc1 | 202 to 204 °C
Cc1cc(Br)c2c(c1)C(=O)C(=O)N2CCN(C(C)C)C(C)C | 94 to 97 °C
CC(C)(O)Cc1cccc(C(F)(F)F)c1 | 55 to 56 °C
Cc1nc(-n2cnn(Cc3ccc(F)cc3)c2=O)sc1C(=O)NCc1cccc(N(C)C)c1 | 149 to 151 °C
Cc1nnc(-c2ccc3occ(-c4cc(F)ccc4F)c3n2)o1 | 185 to 186 °C
COc1cc(Nc2nc3cccc(-c4cccc(CN)c4)c3o2)cc(OC)c1OC | 145 to 150 °C

====

quantity-measured: melting point

smi | endpoint-value
CS(=O)(=O)c1ccc(C(=O)c2cc(-c3ccc(S(C)(=O)=O)cc3)c(N3CCOCC3)s2)cc1 | 190 °C
CCOP(=S)(OCC)Oc1c(C(=O)c2ccccc2Cl)c(C)nn1C | 71 to 74 °C
CCC(=NOC)c1cc(I)c(O)c(CN)c1 | 156 to 157 °C
COC(=O)[C@@H](Cc1ccccc1)NC(=O)[C@@H](Cc1c[nH]c2ccccc12)NC(=O)OCc1ccccc1 | 130 to 131 °C
COc1cc2c(Nc3ccc(Sc4ccccn4)cc3)c(C#N)cnc2cc1N1CCC(N2CCCC2)CC1 | 182 to 184 °C

====

# reported melting point; entries follow
quantity-measured: melting point

molecule | quantity-measured | endpoint-value
Cc1sc2ncc(C(O)CCCc3ccccc3)n2c1C (configuration not stated) | melting point | 167 to 169 °C
NCC1Cc2cc(-c3ccccc3)cc(-c3ccccc3F)c2O1 (configuration not stated) | melting point | > 250 °C
CCCCc1nc(C(C)(C)O)c(C(=O)OCOC(=O)C(C)(C)C)n1Cc1ccc(-c2ccccc2C(=O)O)cc1 | melting point | 139 to 144 °C
COc1cccc(C(=O)N(C)C)c1-c1ccccc1 | melting point | 83 to 84 °C
Nc1c(CC(=O)O)cc(Cl)cc1Oc1ccccc1F | melting point | 154 to 156 °C
O=C(NCC(F)(F)F)C1(CCCCN2CCN(c3ccc4cccc(Cl)c4n3)CC2)c2ccccc2Oc2ccccc21 | melting point | 68 °C
CCOc1cccc(CC(=O)O)c1OCCCc1cn(-c2ccc(C(F)(F)F)cn2)nc1C(CC)CC | melting point | 83 to 84 °C

====

smi | melting point
CC(C)Oc1cccc2c1C1=NCCN1c1c(-c3noc(C4CC4)n3)ncn1-2 | 211 to 214 °C
C=CCOc1ccc(C)c2c1C(C)(C)C(=O)N2 | 153 to 155 °C
CN1CCN(C(=O)Cn2nc(-c3ccccc3O)nc2-c2ccccc2O)CC1 | 199 to 201 °C
CCCCc1nc2ccn(Cc3ccc([N+](=O)[O-])cc3)c(=O)c2n1Cc1ccc([N+](=O)[O-])cc1 | 142 to 143 °C

====

# reported melting point; entries follow

smi | melting point
CCOC(=O)c1nc(-c2ccsc2)n(-c2cccc(Cl)c2F)c1-c1ccc(F)c(Cl)c1 | 207 to 209 °C
O=C(CCCN1CCOCC1)Nc1cccc(-c2ccnc3c(C(=O)c4cccs4)cnn23)c1 | 127 to 133 °C
N#Cc1nn(-c2c(Cl)cc(C(F)(F)F)cc2Cl)c(Br)c1[N+](=O)[O-] | 147 to 150 °C

====

quantity-measured: melting point

compound | quantity-measured | endpoint-value
COCCOc1ccc(CCl)c(Oc2ncc(C(F)(F)F)cc2Cl)c1 | melting point | 108 to 111 °C
O=[N+]([O-])c1ncc(Cl)cc1O | melting point | 97 °C
CCOC(=O)c1c(C(F)(F)F)nc(C(F)F)c(C(=O)OC)c1-n1cccn1 | melting point | 42 to 52 °C
CCOC(=O)Cc1c(-c2ccccc2)nn2cccnc12 | melting point | 86 to 89 °C
CC(C)(C)OC(=O)[C@@H]1CCC(=O)N1 | melting point | 91 to 92 °C
O=c1c2ccccc2n(CCCOC2CCCCO2)c2ccccc12 (stereo not given) | melting point | 140 to 142 °C
N=C(NCC1(c2ccc(Cl)cc2)CC1)NN=Cc1c(Cl)cccc1Cl | melting point | 126 to 128 °C
Cc1cc(F)c(-n2ccc(O)n2)cc1SCC(F)(F)F | melting point | 166 to 168 °C
CCOP(=O)(CSCCOn1cnc2c(N3C(=O)c4ccccc4C3=O)ncnc21)OCC | melting point | 115 to 116 °C
CC1(C)C(=O)Nc2ccc(F)cc2N1C(=O)N1CCCC1 | melting point | 199 to 200 °C
CC(=O)Nc1c(C)cc(OC(C)=O)c(C)c1C | melting point | 174 to 175 °C
CCC(C#Cc1cccc(Oc2ccccn2)c1)N(O)C(N)=O (stereo not given) | melting point | 96 to 98 °C
COC(=O)c1csc(C)c1NS(=O)(=O)NC(=O)Nc1nc(OC)cc(OC)n1 | melting point | 174 °C
COc1cc(C(F)(F)F)ccc1-c1ccc2c(c1)S(=O)(=O)NC(C1CCCCC1)N2 (stereo not given) | melting point | 255 to 257 °C
COc1ccc(Nc2nc(Cl)nc(NC3CC3)n2)cc1Cl | melting point | 172 °C

====

smi | melting point
CCOC(=O)c1cnoc1-c1ccc(Cl)cc1Cl | 82 to 84 °C
COc1ccc(CNc2nc(NC[C@@H](C)O)nc3c2ncn3C(C)C)c(O)c1 | 106 to 108 °C
NCc1cccc(-c2ccc(Br)cc2)n1 | 71 to 75 °C

====

compound | melting point
CC(=O)NC[C@H]1CN(c2ccc(N3CCC(=C(C#N)n4cncn4)CC3)c(F)c2)C(=O)O1 | 194 to 196 °C
CC(C)S(=O)(=O)c1ccc2[nH]nc(Nc3nccs3)c2c1 | 146 to 148 °C
CC(=O)C(C(=O)c1ccc(Cl)cc1)C(=O)c1ccc(C(F)(F)F)cc1[N+](=O)[O-] (stereo not drawn) | 102 to 104 °C
CC(=O)Cc1ccc2oc(C(=O)O)c(C)c2c1 | 77 to 79 °C
FC(F)(F)C(F)(F)Oc1ccc(-c2nnco2)cc1 | 87 to 89 °C
CC(C)C[C@H](NC(=O)OC(C)(C)C)C(=O)NCCCC(c1ccc(F)cc1)c1ccc(F)cc1 | 50 to 55 °C
O=S1(=O)NCN(C2CC2)c2ccc(F)c(Cl)c21 | 198 to 200 °C
CC1=C2CCc3cc(C)ccc3N2CCC1=O | 143 to 145 °C
CC(C(=S)c1cc(NC=O)ccn1)S(C)=O (stereo not drawn) | 132 °C
CCC(CC)N(Cc1ccc(C#N)cc1F)S(=O)(=O)c1ccc(F)cc1 | 102 to 104 °C
Cc1[nH]c2ccnn2c(=O)c1CCO | 225 to 226 °C
O=C(O)Cc1ccc2occ(-c3ccc(C(=O)O)cc3)c2c1 | 278 to 281 °C
C=CCOc1ccccc1[N+](=O)[O-] | 70 to 72 °C
COc1ccc(-n2c(=O)n(O)c(=O)c3cc(F)c(N4CCCC4)cc32)cc1 | 224 to 226 °C
CNc1nc(-c2cccc(NC(=O)c3ccccc3O)c2)c2cc(OC)c(OC)cc2n1 | 212 to 214 °C
CCOc1cccc2c1C(=NNc1ccc(S(N)(=O)=O)cc1)C(=O)N2 | > 250 °C
CCOc1ccc(C2=NN(c3ccc(C(=O)N4CCN(c5nc(-c6ccccc6)ns5)CC4)cc3)C(=O)[C@@H]3CC=CC[C@H]23)cc1OCC | 168 to 169 °C
CC(C)(C)C1=CC(=Nc2ccc(C(=O)O)cc2)C=C(C(C)(C)C)C1=O | 305 to 309 °C
